Source: paper PMC4335872

Assay: HT-equilibrium solubility
Assay type: physicochemical
Conditions: pH 6.8, HT-equilibrium solubility
Kindly supply the reported Solubility values for the records listed here.

These solved cases illustrate the format of a correct answer.
C[C@H]1Cc2c([nH]c3ccc(Cl)cc23)[C@@]2(N1)C(=O)Nc1ccc(Cl)cc12 [(+)-2] : 22 µM
C[C@H]1Cc2c([nH]c3cc(F)c(F)cc23)[C@@]2(N1)C(=O)Nc1ccc(Cl)cc12 [(+)-6] : 169 µM
C[C@@H]1Cc2c([nH]c3cc(F)c(F)cc23)[C@]2(N1)C(=O)Nc1ccc(Cl)cc12 [(−)-6] : 112 µM
C[C@@H]1Cc2c([nH]c3cc(Cl)c(F)cc23)[C@]2(N1)C(=O)Nc1ccc(Cl)cc12 [(−)-7] : 35 µM
C[C@H]1Cc2c([nH]c3ccc(F)cc23)[C@@]2(N1)C(=O)Nc1ccc(Cl)cc12 [(+)-4] : 137 µM

Report Solubility for each item below.
1. C[C@H]1Cc2c([nH]c3cc(F)ccc23)[C@@]2(N1)C(=O)Nc1ccc(Cl)cc12 [(+)-5]
2. C[C@H]1Cc2c([nH]c3cc(Cl)ccc23)[C@@]2(N1)C(=O)Nc1ccc(Cl)cc12 [(+)-3]

1: 131 µM; 2: 8 µM
